molecular target: Histamine H1 receptor (Rattus norvegicus); experiment: Inhibitory binding of [3H]mepyramine to histamine H1 receptors in rat brain membranes
Sequence (P31390 whole entry): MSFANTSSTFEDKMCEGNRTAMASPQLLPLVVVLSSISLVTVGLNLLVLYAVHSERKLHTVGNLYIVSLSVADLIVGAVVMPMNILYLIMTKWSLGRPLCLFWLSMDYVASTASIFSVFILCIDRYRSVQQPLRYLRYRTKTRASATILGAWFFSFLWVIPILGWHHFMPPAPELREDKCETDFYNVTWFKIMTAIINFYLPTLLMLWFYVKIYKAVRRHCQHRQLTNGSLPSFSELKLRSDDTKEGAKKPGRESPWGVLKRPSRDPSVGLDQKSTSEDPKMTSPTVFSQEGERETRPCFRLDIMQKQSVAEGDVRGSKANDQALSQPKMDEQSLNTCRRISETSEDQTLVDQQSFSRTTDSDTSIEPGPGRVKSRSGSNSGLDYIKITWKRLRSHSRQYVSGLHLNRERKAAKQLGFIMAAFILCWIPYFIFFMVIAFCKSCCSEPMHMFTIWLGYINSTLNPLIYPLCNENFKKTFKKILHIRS
pIC50: −log10 of the molar value.
recordedMetric: pIC50

1: CN1CCN(C2=Nc3cc(OS(=O)(=O)C(F)(F)F)ccc3Nc3ccccc32)CC1
2: CN1CCN(C2=Nc3ccccc3Nc3ccc(OS(=O)(=O)C(F)(F)F)cc32)CC1
[Q] Problem: Given the entries 1 and 2 , determine which has the lower reported pIC50. Answer format: the label of the selected item.
[A] 1
(1: 6.14, 2: 7.33)
